Source of measurements: ChEMBL document CHEMBL1130160

Each record here notes measured minimal effective dose.
# System: Rattus norvegicus
# method.notes: Minimum effective dose at which significant increase in uterine weight/body weight in rat was determined (in vivo)
# Type: functional
# measurement.context: read-out: MED
assay.metric: minimal effective dose

1) O=C(c1ccc(OCCN2CCCCC2)cc1)c1c(-c2cc[n+]([O-])cc2)sc2cc(O)ccc12 | > 10 mg/kg
2) NC(=O)c1ccc(-c2sc3cc(O)ccc3c2C(=O)c2ccc(OCCN3CCCCC3)cc2)cc1 | > 10 mg/kg
3) O=C(c1ccc(OCCN2CCCCC2)cc1)c1c(-c2ccccc2O)sc2cc(O)ccc12 | > 10 mg/kg
4) Cc1cc(-c2sc3cc(O)ccc3c2C(=O)c2ccc(OCCN3CCCCC3)cc2)ccc1O | > 10 mg/kg
5) CCCCc1ccc(-c2sc3cc(O)ccc3c2C(=O)c2ccc(OCCN3CCCCC3)cc2)cc1 | > 10 mg/kg
6) O=C(c1ccc(OCCN2CCCCC2)cc1)c1c(-c2ccc(O)cc2)sc2cccc(O)c12 | > 10 mg/kg
7) O=C(O)c1ccc(-c2sc3cc(O)ccc3c2C(=O)c2ccc(OCCN3CCCCC3)cc2)cc1 | > 10 mg/kg
8) Cc1cc(O)ccc1-c1sc2cc(O)ccc2c1C(=O)c1ccc(OCCN2CCCCC2)cc1 | 0.1 mg/kg
9) Cc1ccc(-c2sc3cc(O)ccc3c2C(=O)c2ccc(OCCN3CCCCC3)cc2)cc1.Cl | 1 mg/kg
10) Cl.O=C(c1ccc(OCCN2CCCCC2)cc1)c1c(-c2ccc(F)cc2)sc2cc(O)ccc12 | 1 mg/kg
11) O=C(c1ccc(OCCN2CCCCC2)cc1)c1c(-c2cccs2)sc2cc(O)ccc12 | 1 mg/kg
12) CCc1sc2cc(O)ccc2c1C(=O)c1ccc(OCCN2CCCCC2)cc1 | 10 mg/kg
13) COc1ccc(-c2sc3cc(OC)ccc3c2C(=O)c2ccc(OCCN3CCCCC3)cc2)cc1.Cl | 0.1 mg/kg

###

# system.under.test: Estrogen receptor (Homo sapiens, UniProt Q92731+P03372)
# measurement.context: mcf7
assay.metric: IC50 (nM)

1) O=C(c1ccc(OCCN2CCCCC2)cc1)c1c(-c2ccc(O)c(Cl)c2)sc2cc(O)ccc12 | 2.3
2) COc1cc(O)ccc1-c1sc2cc(O)ccc2c1C(=O)c1ccc(OCCN2CCCCC2)cc1 | 2
3) COc1ccc(-c2sc3cc(O)ccc3c2C(=O)c2ccc(OCCN3CCCCC3)cc2)cc1 | 1000

###

# System: Rattus norvegicus
# method.notes: Minimum effective dose at which significant increase in uterine weight/body weight in rat was determined (in vivo); expressed as % increase relative to ovariectomized (OVX) controls
# Type: functional
assay.metric: Increase (%)

1) O=C(c1ccc(OCCN2CCCCC2)cc1)c1c(C2CCCCC2)sc2cc(O)ccc12 | 30.2
2) C=Cc1ccc(-c2sc3cc(O)ccc3c2C(=O)c2ccc(OCCN3CCCCC3)cc2)cc1 | 26.9
3) CC(C)c1ccc(-c2sc3cc(O)ccc3c2C(=O)c2ccc(OCCN3CCCCC3)cc2)cc1 | 24.9
4) O=C(c1ccc(OCCN2CCCCC2)cc1)c1c(Cc2ccc(O)cc2)sc2cc(O)ccc12 | 36.9

###

Here the recorded IC50 is given for each entry.
# system.under.test: Estrogen receptor (Homo sapiens, UniProt Q92731+P03372)
# measurement.context: mcf7
assay.metric: IC50 (nM)

1) O=C(c1ccc(OCCN2CCCCC2)cc1)c1c(-c2ccncc2)sc2cc(O)ccc12 | 100
2) O=C(c1ccc(OCCN2CCCCC2)cc1)c1c(-c2ccc(-c3ccccc3)cc2)sc2cc(O)ccc12 | 100
3) COc1ccc(-c2sc3ccccc3c2C(=O)c2ccc(OCCN3CCCCC3)cc2)cc1.O=C(O)CC(O)(CC(=O)O)C(=O)O | 100
